The reported numbers originate from the supplement of paper PMC10724198.

- System: Saccharomyces cerevisiae
- Assay Remarks: protein stability index of tFT-peptide fusion (C-terminal peptide) (PSI (0-1 scale)); higher = more stable (slower turnover)
- Measurement Context: genetic background: wild type; temperature: 30 C
Measured Attribute: protein stability index
Just the number, please, no unit after it.

Examples with answers:
INSERT INTO results (sequence_entry, observed_result) VALUES
  ('GVQSSAPVKVRI', 0.655),
  ('KSVSVDGYNKED', 0.646),
  ('VLRACCDWGFLV', 0.161),
  ('PPSRSPLPPLLH', 0.723),
  ('RRLLERSIKRSE', 0.696);

For the sequence PPPPLAPAPPAF , what protein stability index is on record? 0.744

Returns the measured protein stability index for the input sequence. Input: GGGGRVRDALGM 0.696

Value lookup for protein stability index; key = GGWGGVCGACVV 0.702

Fill blank: measured protein stability index of the sequence PSSAQKNPNPNT is ____. 0.701

Endpoint output: protein stability index of VGVGRGALRWYG . Value? 0.704

Any idea what protein stability index was measured for LFVSLSFVVFLP ? 0.34

I am curious: what protein stability index value has been reported for LFVSGVPRSWDR ? 0.707

Bench note: what protein stability index did KKERSTKTNRNV show? 0.635

protein stability index for SGIYQTTSYIKI ? 0.751

Endpoint output: protein stability index of RLPAPPTVPLPP . Value? 0.6

---

- Test system: Saccharomyces cerevisiae
- Assay Remarks: protein stability index of tFT-peptide fusion (C-terminal peptide) (PSI (0-1 scale)); higher = more stable (slower turnover)
- Measurement Context: genetic background: das1 deletion; temperature: 30 C
Here, each record is paired with measured protein stability index data.
Please reply with the number alone, leaving off any unit.

INSERT INTO measurements (sequence_entry, observed_result) VALUES
  ('YLFFSCIFTFSC', 0.179),
  ('FLFQYLCIISSL', 0.133),
  ('DPTLLLYPLSPL', 0.654),
  ('PPSLPPLISFSP', 0.656);

// returns reported protein stability index for input LLMCCLPFLWVF 0.328

Look up protein stability index: GFSVFSHSVWVR 0.19

Query: protein stability index; subject: RAVLRFVMVWVL 0.466

So what does the record say about protein stability index for VGGLGWCWVCMA ? 0.595

For the sequence shown here, MSRALSVLVVVA , give the reported protein stability index. 0.213

---

- Test system: Saccharomyces cerevisiae
- Assay Remarks: protein stability index of tFT-peptide fusion (C-terminal peptide) (PSI (0-1 scale)); higher = more stable (slower turnover)
- Measurement Context: genetic background: wild type; temperature: 30 C
Rule: protein stability index under 0.7 gives NO, otherwise YES.

Consider the following illustrative entries.
INSERT INTO measurements (sequence_entry, target_desc, qualitative_label) VALUES
  ('KFDKPLYERLET [YNR014W C-terminal 12 aa]', 'Saccharomyces cerevisiae', 'NO'),
  ('DPNGILNPYKYI [DLD2 C-terminal 12 aa]', 'Saccharomyces cerevisiae', 'NO');

Exam item: decide whether the reported protein stability index for EGIFPANYVRVS [YSC84 C-terminal 12 aa] is at least 0.7. NO

Evaluate QVKLSILKSLGF [UBC7 C-terminal 12 aa] : protein stability index at minimum 0.7? NO

---

- Tested on: Saccharomyces cerevisiae
- Assay Remarks: protein stability index of tFT-peptide fusion (C-terminal peptide) (PSI (0-1 scale)); higher = more stable (slower turnover)
- Measurement Context: genetic background: wild type; temperature: 30 C
Threshold rule: protein stability index greater than or equal to 0.7 is True; below that, False.

INSERT INTO measurements (sequence_entry, qualitative_label) VALUES
  ('NKKFTKQTCKPK', 'False'),
  ('TPMPSCNHRPED', 'False'),
  ('RSSPRCPPSPGH', 'True'),
  ('LLPPTPIAFPPS', 'True'),
  ('GGCVCGPRVLGV', 'False'),
  ('VCSLALSRPSTG', 'False');

Has EVTDSVKTEPAT a recorded protein stability index greater than or equal to 0.7? False

Would you say LGPPPPPASVCR shows protein stability index at minimum 0.7? False

Has EQRLQRATELGR a recorded protein stability index greater than or equal to 0.7? False

Identify whether the reported protein stability index of the following sequence is 0.7 or greater: RSARGQFRGISC True

Could you tell me if the measured protein stability index of TYSVIPSLALLP reaches 0.7 or more? False

---

- System: Saccharomyces cerevisiae
- Assay Remarks: protein stability index of tFT-peptide fusion (C-terminal peptide) (PSI (0-1 scale)); higher = more stable (slower turnover)
- Measurement Context: genetic background: wild type; temperature: 30 C
Measured Attribute: protein stability index
// return a plain number; no unit text

Here is how some sequences turned out for protein stability index.
INSERT INTO assay_data (sequence_entry, measured_attribute, observed_result) VALUES
  ('LTALLETVNKYR [GCG1 C-terminal 12 aa]', 'protein stability index', 0.682),
  ('NYFIITCIGIIM [YPL261C C-terminal 12 aa]', 'protein stability index', 0.247),
  ('IFCFDNYRSCYC [YKL031W C-terminal 12 aa]', 'protein stability index', 0.678);

Quick one: protein stability index for SMTTTNFSDFSL [UPC2 C-terminal 12 aa] ? 0.688

Recorded protein stability index for LENIKKAKEFFQ [GTR1 C-terminal 12 aa] , please? 0.705

For the sequence SYKWLKRETSPL [FRA1 C-terminal 12 aa] , what protein stability index is on record? 0.689

---

We begin with a simple list: items and their reported protein stability index.
- System: Saccharomyces cerevisiae
- Assay Remarks: protein stability index of tFT-peptide fusion (C-terminal peptide) (PSI (0-1 scale)); higher = more stable (slower turnover)
- Measurement Context: genetic background: wild type; temperature: 30 C
// response body must contain only the number

Which protein stability index value belongs to PPFTARPATLAR ? 0.565

Entry CCSIVRSGAGDK has what protein stability index? 0.748

Give its protein stability index value. Item: FFLVILSWWVGE 0.242

// returns reported protein stability index for input PAEGVVGGKCYV 0.685

Quick one: protein stability index of SVYLIRSLEALR ? 0.679

---

# protein stability index values compiled below
- Test system: Saccharomyces cerevisiae
- Assay Remarks: protein stability index of tFT-peptide fusion (C-terminal peptide) (PSI (0-1 scale)); higher = more stable (slower turnover)
- Measurement Context: genetic background: wild type; temperature: 30 C
Enter a number only.

INSERT INTO results (sequence_entry, measured_attribute, observed_result) VALUES
  ('LVRLVGVGLEAV', 'protein stability index', 0.694),
  ('GFLCARGAHSMT', 'protein stability index', 0.704),
  ('DLSAGKWSRSSD', 'protein stability index', 0.689),
  ('PPPLPFPTPPPS', 'protein stability index', 0.433),
  ('HRRMGVGGCLEE', 'protein stability index', 0.682);

Give its protein stability index value. Item: PPPASLTSPRQP 0.731

Requested read-out: protein stability index. Entry: PPSPPHIHTYLT 0.694

Given the sequence PPLHSSPPAVPP , what is its reported protein stability index? 0.699

Returns the measured protein stability index for the input sequence. Input: DPLVDLCGPLSL 0.717

Find the recorded protein stability index belonging to LGPSTCPCEVQS and report it. 0.677

Tell me the measured protein stability index of LPRRLLFSYPTF , please. 0.647

Param item = WLFFVVLPVKAF ; retrieve measured protein stability index. 0.231

I have this sequence here, FWHERVSSTVKR , and I need its recorded protein stability index. 0.731

Entry under review: RPTPSHRTPSIG . Reported protein stability index? 0.723

Endpoint output: protein stability index of DGGKRKQDSQKK . Value? 0.683

Field request: protein stability index | item: IWQLRARIQAGW 0.617

// returns reported protein stability index for input GRPLRAPPPPSP 0.65

---

- System: Saccharomyces cerevisiae
- Assay Remarks: protein stability index of tFT-peptide fusion (C-terminal peptide) (PSI (0-1 scale)); higher = more stable (slower turnover)
- Measurement Context: genetic background: wild type; temperature: 30 C
Below, each of the sequences is paired with its reported protein stability index value.
Would you mind answering with just the numeric figure?

Some entries whose results are on file:
INSERT INTO results (sequence_entry, observed_result) VALUES
  ('LPTLPGWKASCL', 0.674),
  ('SATLRCASLSFC', 0.679),
  ('TKKNDKIRIQKS', 0.741),
  ('TLRINSPFYFLS', 0.419);

Kindly state the measured protein stability index obtained for PLSDRGGRFPML with Saccharomyces cerevisiae. 0.7

For Saccharomyces cerevisiae, provide protein stability index of PMPPPRRPTALC please. 0.716

Return protein stability index measured with Saccharomyces cerevisiae given this sequence: PPPRPPSPLSLA 0.643

// map TEKTEAKNCNTK to recorded protein stability index (system: Saccharomyces cerevisiae) 0.697

protein stability index of ERNDLGNRLSMD on Saccharomyces cerevisiae? 0.654

Recorded protein stability index for EFPSGCSSVIVA with Saccharomyces cerevisiae, please? 0.655
